Listed here are sequences together with their documented furin cleavage Z-score.
# tgt: furin, P09958
# Sequence (P09958 whole entry): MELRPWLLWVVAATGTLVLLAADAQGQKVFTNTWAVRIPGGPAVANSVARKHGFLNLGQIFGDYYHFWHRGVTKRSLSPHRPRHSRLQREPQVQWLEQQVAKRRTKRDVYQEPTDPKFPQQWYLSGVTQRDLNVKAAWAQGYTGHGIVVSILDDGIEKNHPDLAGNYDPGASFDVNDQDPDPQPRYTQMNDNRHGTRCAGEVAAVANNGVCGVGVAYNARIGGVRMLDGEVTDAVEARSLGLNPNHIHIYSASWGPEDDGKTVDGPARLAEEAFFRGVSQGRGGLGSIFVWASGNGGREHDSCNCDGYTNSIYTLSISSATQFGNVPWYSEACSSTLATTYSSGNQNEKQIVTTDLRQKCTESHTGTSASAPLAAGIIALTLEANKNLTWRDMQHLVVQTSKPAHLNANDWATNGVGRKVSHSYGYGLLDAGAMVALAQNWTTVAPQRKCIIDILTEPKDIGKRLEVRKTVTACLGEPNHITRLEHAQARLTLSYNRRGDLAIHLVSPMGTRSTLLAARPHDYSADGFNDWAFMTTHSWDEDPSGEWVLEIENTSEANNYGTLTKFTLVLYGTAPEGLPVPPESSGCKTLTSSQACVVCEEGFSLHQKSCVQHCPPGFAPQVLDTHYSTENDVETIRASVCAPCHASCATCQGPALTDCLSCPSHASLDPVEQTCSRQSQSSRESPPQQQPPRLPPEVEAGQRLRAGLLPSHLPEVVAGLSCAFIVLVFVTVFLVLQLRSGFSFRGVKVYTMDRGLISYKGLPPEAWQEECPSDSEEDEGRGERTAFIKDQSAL
# measurement.protocol: furin cleavage Z-score vs untreated control; higher = more cleavage, active = 3.5 or more, inactive = 1 or less, 8 variable residues between constant flanks;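 note: purified furin at 1:10 enzyme:substrate in 50 mM HEPES pH 7.5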
# reported.conditions: 7.5 min
The list shows a part of the results. No count for the full screen is at hand.

{"columns": ["seq", "furin cleavage Z-score"],
 "data": [
  ["CAKNGRPLRSAGNASASA [FS-341]", 0.926],
  ["CASLTERLYVAGNASASA [HC1498]", -0.595],
  ["CAFLVQAWKSAGNASASA [HC1472]", -0.545],
  ["CAEVDTSTWVAGNASASA [HC2191]", -0.604],
  ["CARFDRFILTAGNASASA [FS-2331]", -0.835],
  ["CASAPSLKATAGNASASA [HC1264]", -1.75],
  ["CADGEVVTSTAGNASASA [HC2296]", 0.392]
]}
